Target: human GPVI-Fc (isoform and haplotype not stated) used in the competition ELISA (human) (UniProt Q9HCN6)
Test: Competition ELISA (MSD): human GPVI-Fc preincubated with Fab, then on coated VitroCol (competitor)
PROPERTY MEASURED: IC50 (nM)
Value expressed in nM; do not type the unit.

[
  {
    "BINDER": "Fab #1 comprising a modified heavy chain constant region (Fab, V domains shown) VH: QVQLVQSGAEVKKPGASVKVSCKASGYTFTSHYMHWVRQAPGQGLEWMGLIEPSEGETEYAQRFQGRVTMTRDTSTSTVYMELSSLRSEDTAVYYCARDSSRSYPLGFDIWGQGTLVTVSS VL: QSVLTQPPSVSAAPGQKVTISCSGSSSNIGNNYVSWYQQLPGTAPKLLIYDNNKRPSGIPDRFSGSKSGTSATLGITGLQTEDEADYYCAAWDFRSSRWVFGGGTKLTVLG",
    "PROPERTY MEASURED": "IC50",
    "MEASURED": 8.2
  },
  {
    "BINDER": "Fab #2 comprising a modified heavy chain constant region (Fab, V domains shown) VH: QVQLVESGGGLVKPGGSLRLSCAASGFSFSDHYMSWIRQAPGKGLEWVSSVGSEGKFIDYAASVKGRFTISRDNAKNSLYLQMNSLRAEDTAVYYCARHYREFRWHYYYFDYWGQGTLVTVSS VL: QSVLTQPPSVSGAPGQRVTISCTGSSSNIGAGYDVHWYQQLPGTAPKLLIYGNSNRPSGVPDRFSGSKSGTSASLAITGLQAEDEADYYCQSHDLGAHVWVFGGGTKLTVLG",
    "PROPERTY MEASURED": "IC50",
    "MEASURED": 5.4
  },
  {
    "BINDER": "Fab #3 comprising a modified heavy chain constant region (Fab, V domains shown) VH: QVQLVESGGGLVKPGGSLRLSCAASGFSFGDYYVSWIRQAPGKGLEWVSAIGGSGSAVQYAESVKGRFTISRDNAKNSLYLQMNSLRAEDTAVYYCARHYREFRWHYYYFDYWGQGTLVTVSS VL: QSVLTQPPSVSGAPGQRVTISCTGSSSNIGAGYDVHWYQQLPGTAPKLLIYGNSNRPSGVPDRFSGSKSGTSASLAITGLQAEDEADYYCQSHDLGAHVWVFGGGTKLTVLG",
    "PROPERTY MEASURED": "IC50",
    "MEASURED": 5.6
  }
]

Here is another binder to look at.
*Q* // query IC50 value for entry Reference Control Antibody RefFab #1 (humanized GPVI antibody of WO2011073954A2, SANOFI) (Fab, V domains shown) VH: EVQLLESGPGLVAPSGSLSITCTVSGFSLTGYGVNWVRQPPGKGLEWLGMIWGDGSTDYQSTLKSRLSISKDNSKSQVFLKMNSLRTDDTARYYCARDLPMDYWGLGTSVTVSS VL: DIQMTQSPSSLSASVGGRVTITCKASQDINKYIAWYQHKPGKGPSLLIHYTSTLQPGVPSRFSGSGSGRDYSFSISNLQPEDIATYYCLQYANLLTFGGGTKLEIKR
*A* 5.8
